Recorded MFI for the following binders
target or test system: T1, porcine CD163 with deletion of SRCR domain 5 on porcine alveolar macrophages (porcine, UniProt Q2VL90 47-1115)
T1 construct: also called PAM CD163-d5; pPAMΔ5 domain
T1 sequence: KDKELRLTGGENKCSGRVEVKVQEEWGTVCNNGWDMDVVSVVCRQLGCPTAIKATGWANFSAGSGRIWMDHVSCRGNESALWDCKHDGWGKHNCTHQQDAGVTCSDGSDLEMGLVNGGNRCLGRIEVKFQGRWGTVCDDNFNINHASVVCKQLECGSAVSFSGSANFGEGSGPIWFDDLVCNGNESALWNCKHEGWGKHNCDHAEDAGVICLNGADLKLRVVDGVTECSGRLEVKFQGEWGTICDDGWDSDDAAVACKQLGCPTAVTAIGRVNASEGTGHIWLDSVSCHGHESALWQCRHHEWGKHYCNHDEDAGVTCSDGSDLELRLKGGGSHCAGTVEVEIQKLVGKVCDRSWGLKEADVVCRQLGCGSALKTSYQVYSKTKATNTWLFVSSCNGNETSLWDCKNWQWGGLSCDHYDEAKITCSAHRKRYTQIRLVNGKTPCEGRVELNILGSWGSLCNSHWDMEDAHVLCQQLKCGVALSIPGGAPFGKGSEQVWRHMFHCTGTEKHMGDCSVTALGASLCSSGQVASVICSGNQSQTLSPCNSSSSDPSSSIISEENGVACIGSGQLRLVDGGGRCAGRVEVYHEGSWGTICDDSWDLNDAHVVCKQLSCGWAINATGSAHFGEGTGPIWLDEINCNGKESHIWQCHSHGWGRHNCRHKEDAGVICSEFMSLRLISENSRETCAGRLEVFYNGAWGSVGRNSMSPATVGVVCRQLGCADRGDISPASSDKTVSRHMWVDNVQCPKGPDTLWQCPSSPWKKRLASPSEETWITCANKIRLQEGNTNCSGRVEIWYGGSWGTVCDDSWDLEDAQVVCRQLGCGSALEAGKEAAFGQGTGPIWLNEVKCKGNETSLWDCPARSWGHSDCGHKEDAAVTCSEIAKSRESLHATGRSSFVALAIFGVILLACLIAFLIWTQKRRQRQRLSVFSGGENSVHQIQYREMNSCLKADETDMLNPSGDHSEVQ
experiment description: flow cytometry, PAM CD163-d5
Give the value in MFI but do not write MFI after it.

{"binder": "VHH 015 (2G01) (VHH, Llama single domain antibody; also called 150(#15); VHCDR3 150(#15); not shown: tags: c-myc tag in periplasmic extract (ELISA, FACS); FLAG and His tags in purified VHH (SPR, infection assays)) VHH: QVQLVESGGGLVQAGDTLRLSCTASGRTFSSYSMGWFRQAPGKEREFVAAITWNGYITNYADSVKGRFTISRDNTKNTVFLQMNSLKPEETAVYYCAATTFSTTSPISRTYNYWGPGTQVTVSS", "value": 1130}
{"binder": "VHH 020 (3H11) (VHH, Llama single domain antibody; also called 48(#20); VHCDR3 48(#20); not shown: tags: c-myc tag in periplasmic extract (ELISA, FACS); FLAG and His tags in purified VHH (SPR, infection assays)) VHH: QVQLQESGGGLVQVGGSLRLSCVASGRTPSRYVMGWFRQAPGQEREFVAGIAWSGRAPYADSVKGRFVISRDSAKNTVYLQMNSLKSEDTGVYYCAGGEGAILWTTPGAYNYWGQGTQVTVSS", "value": 1330}
{"binder": "VHH 008 (1H01) (VHH, Llama single domain antibody; also called 78(#8); VHCDR3 78(#8); not shown: tags: c-myc tag in periplasmic extract (ELISA, FACS); FLAG and His tags in purified VHH (SPR, infection assays)) VHH: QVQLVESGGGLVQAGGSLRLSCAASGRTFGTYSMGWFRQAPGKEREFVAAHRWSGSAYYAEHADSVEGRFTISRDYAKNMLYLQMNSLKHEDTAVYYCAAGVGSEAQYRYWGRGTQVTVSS", "value": 1460}
{"binder": "VHH 016 (2H11) (VHH, Llama single domain antibody; also called 77(#16); VHCDR3 77(#16); not shown: tags: c-myc tag in periplasmic extract (ELISA, FACS); FLAG and His tags in purified VHH (SPR, infection assays)) VHH: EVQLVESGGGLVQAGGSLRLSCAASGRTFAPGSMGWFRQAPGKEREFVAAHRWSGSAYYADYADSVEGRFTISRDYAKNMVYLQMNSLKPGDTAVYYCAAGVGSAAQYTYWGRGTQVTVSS", "value": 1360}
{"binder": "VHH 023 (4E10) (VHH, Llama single domain antibody; also called 70(#23); VHCDR3 70(#23); not shown: tags: c-myc tag in periplasmic extract (ELISA, FACS); FLAG and His tags in purified VHH (SPR, infection assays)) VHH: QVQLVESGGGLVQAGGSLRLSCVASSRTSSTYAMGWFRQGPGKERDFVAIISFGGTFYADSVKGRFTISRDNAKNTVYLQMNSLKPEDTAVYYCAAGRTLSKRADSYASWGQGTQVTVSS", "value": 1260}

We next turn to a different binder, shown below.
-- ask Fill in: MFI of VHH 002 (1B04) (VHH, Llama single domain antibody; also called 76(#2); VHCDR3 76(#2); not shown: tags: c-myc tag in periplasmic extract (ELISA, FACS); FLAG and His tags in purified VHH (SPR, infection assays)) VHH: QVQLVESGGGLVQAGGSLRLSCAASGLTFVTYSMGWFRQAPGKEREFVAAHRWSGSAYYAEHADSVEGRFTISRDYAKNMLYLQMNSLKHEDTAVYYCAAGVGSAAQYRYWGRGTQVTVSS is ___
-- reply 1260
